- system tested: Gastrin/cholecystokinin type B receptor (Mus musculus, UniProt P56481)
- Sequence (P56481 whole entry): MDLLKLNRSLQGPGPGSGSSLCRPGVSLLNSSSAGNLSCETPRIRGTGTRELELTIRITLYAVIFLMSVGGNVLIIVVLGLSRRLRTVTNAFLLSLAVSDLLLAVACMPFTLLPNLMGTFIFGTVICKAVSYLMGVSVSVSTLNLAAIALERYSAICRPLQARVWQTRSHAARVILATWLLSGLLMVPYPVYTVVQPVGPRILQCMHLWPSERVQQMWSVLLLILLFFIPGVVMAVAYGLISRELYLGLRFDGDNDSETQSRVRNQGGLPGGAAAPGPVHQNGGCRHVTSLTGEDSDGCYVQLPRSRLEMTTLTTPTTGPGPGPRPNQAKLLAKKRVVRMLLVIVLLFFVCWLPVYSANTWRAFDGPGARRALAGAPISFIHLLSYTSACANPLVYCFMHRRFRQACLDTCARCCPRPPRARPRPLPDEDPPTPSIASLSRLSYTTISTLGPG
The following compounds are shown together with reported IC50 values.
Could you give me the number in nM? Just the number is fine.

Example results:
[[record]]
compound = "O=C(O)c1cc(NC(=O)C2Cc3ccccc3CCN2C(=O)c2cc3[nH]cnc3cc2C(=O)NCC23CC4CC(CC(C4)C2)C3)cc(C(=O)O)c1 (stereo not drawn)"
assay_endpoint = "IC50"
endpoint_value = 234

[[record]]
compound = "O=C(O)c1cc(NC(=O)C2Cc3ccccc3CN2C(=O)c2cc3[nH]cnc3cc2C(=O)NCC23CC4CC(CC(C4)C2)C3)cc(C(=O)O)c1 (stereo not drawn)"
assay_endpoint = "IC50"
endpoint_value = 178


--- query ---
## Input Suppose we examine the compound `O=C(O)c1cc(NC(=O)[C@H](Cc2ccccc2)NC(=O)c2cc3[nH]cnc3cc2C(=O)NCC23CC4CC(CC(C4)C2)C3)cc(C(=O)O)c1` ; what IC50 value has been reported?
## Output 5.25

###

- system tested: Gastrin/cholecystokinin type B receptor (Rattus norvegicus) (UniProt P30553)
- Sequence (P30553 whole entry, the tested form may be a part): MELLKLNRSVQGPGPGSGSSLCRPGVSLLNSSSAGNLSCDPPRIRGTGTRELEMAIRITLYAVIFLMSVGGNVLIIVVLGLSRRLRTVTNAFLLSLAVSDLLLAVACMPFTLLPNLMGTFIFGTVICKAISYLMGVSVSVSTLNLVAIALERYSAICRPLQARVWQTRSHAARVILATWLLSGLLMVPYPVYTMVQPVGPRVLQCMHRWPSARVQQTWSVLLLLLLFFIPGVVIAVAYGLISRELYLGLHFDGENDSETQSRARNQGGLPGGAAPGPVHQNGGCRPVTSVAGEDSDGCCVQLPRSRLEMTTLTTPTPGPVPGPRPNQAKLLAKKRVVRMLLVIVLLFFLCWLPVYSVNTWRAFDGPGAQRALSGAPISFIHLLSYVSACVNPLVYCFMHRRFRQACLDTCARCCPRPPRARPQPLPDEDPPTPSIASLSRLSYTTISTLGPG
- measurement description: Evaluated for Cholecystokinin type B receptor antagonistic activity in isolated lumen-perfused immature rat stomach
- Type: functional, tissue-based
Is pKB at least 8? Then Criterion met. If not, Criterion not met.

Study these solved cases before continuing.
[[record]]
compound = "O=C(O)c1cc(NC(=O)C2Cc3ccccc3CN2C(=O)c2cc3[nH]cnc3cc2C(=O)NCC23CC4CC(CC(C4)C2)C3)cc(C(=O)O)c1 (stereo not given)"
category = "Criterion not met"

[[record]]
compound = "O=C(O)c1cc(NC(=O)C2Cc3ccccc3CCN2C(=O)c2cc3[nH]cnc3cc2C(=O)NCC23CC4CC(CC(C4)C2)C3)cc(C(=O)O)c1 (stereo not given)"
category = "Criterion not met"

[[record]]
compound = "O=C(O)c1cc(NC(=O)[C@H](Cc2ccccc2)NC(=O)c2cc3[nH]cnc3cc2C(=O)NCC23CC4CC(CC(C4)C2)C3)cc(C(=O)O)c1"
category = "Criterion met"


## Input I'd appreciate it if you could say whether O=C(O)c1cc(NC(=O)C2Cc3ccccc3CCCCN2C(=O)c2cc3[nH]cnc3cc2C(=O)NCC23CC4CC(CC(C4)C2)C3)cc(C(=O)O)c1 (stereo not given) has pKB at least equal to 8.
## Output Criterion met
